Data credit: patent US20100130424A1

Listed here: items and their measured pKI.
Target: T1, human CRH receptor type 2 (human, UniProt Q13324 1-411)
T1 sequence (looked up): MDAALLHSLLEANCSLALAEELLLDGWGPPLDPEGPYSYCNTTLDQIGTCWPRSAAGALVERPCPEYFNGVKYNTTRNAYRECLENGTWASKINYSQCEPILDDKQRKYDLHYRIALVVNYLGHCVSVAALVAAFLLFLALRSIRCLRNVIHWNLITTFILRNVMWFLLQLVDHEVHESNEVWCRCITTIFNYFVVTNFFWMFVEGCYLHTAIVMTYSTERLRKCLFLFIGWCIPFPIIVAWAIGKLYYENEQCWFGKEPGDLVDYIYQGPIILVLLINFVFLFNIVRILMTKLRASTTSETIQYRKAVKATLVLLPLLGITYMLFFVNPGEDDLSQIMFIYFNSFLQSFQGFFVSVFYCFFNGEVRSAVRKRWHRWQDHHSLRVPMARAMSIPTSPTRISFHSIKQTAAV
Assay: radioligand competition, [125I]-anti-sauvagine-30, membranes of h-CRHR2 SK-N-MC cells
No end group written: not given here.

[
  {
    "Binder": "DDPPLSIDLTFHLLRTLLELARTQSQRERAEQNRIIFDSV-NH2 [r-UCN1]",
    "pKI": "8.51 -log M"
  },
  {
    "Binder": "FHLLRKMIEIEKQEKEKQQAANNRLLLDTI-NH2 (selective CRHR2 antagonist; also called SV30; CRHR antagonist peptide) [anti-sauvagine-30]",
    "pKI": "7.78 -log M"
  },
  {
    "Binder": "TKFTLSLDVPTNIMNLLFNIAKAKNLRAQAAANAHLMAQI-NH2 (40 amino acids; also called h-SCP) [Human stresscopin with amidated C-terminus]",
    "pKI": "5.71 -log M"
  }
]

--- query ---
Given the binder FTLSLDVPTNIMNLLFNIAKAKNLRAQAAANAHLMAQI-NH2 [human Urocortin III] , what is its reported pKI?
6.49 -log M
